Each recorded value in this set is attributed to ChEMBL document CHEMBL5050843.

Assay: Inhibition of TNF-alpha-FL-Gluc secretion in doxycyclin-induced human Flp-In-T-REx-293 cells measured by Gaussia luciferase reporter gene method
Type: functional, cell-based
This section presents molecules with their documented IC50 values.
Attribute Measured: IC50

# Item Smiles, Attribute Measured, Endpoint Value
data = [
    ("O=C(Nc1nc(C2CC2)cs1)c1cc2c(s1)CCCC2", "IC50", "> 80 µM"),
    ("COC(=O)c1sc(NC(=O)c2cc3c(s2)CCCC3)nc1C(C)(C)C", "IC50", "> 80 µM"),
    ("CC(C)(C)c1csc(NC(=O)Cc2cn(Cc3ccccc3)c3ccncc23)n1", "IC50", "> 25 µM"),
    ("CC(C)(C)c1csc(NC(=O)Cc2cn(Cc3ccccc3)c3ncccc23)n1", "IC50", "> 25 µM"),
    ("CC(C)(C)c1csc(NC(=O)c2cc3c([nH]2)CCCC3)n1", "IC50", "> 80 µM"),
    ("Cc1cc(Cn2cc(CC(=O)Nc3nc(C(C)(C)C)cs3)c3cc(Cl)ccc32)ccn1", "IC50", "> 25 µM"),
    ("CC(C)(C)c1csc(NC(=O)Cc2cn(Cc3ccccc3)c3nc(Cl)ccc23)n1", "IC50", "> 25 µM"),
]

====

Experiment: Inhibition of PD1ss-Gluc secretion in doxycyclin-induced human Flp-In-T-REx-293 cells measured by Gaussia luciferase reporter gene method
Type: functional, cell-based
pIC50: −log10 of the molar value.

# Molecule, Censoring Qualifier, pIC50
measured = [
    ("CC(=O)N(C)[C@@H](Cc1cn(Cc2ccc(F)cc2)c2ccccc12)C(=O)Nc1nc(C(C)(C)C)cs1", "<", 4.60),
    ("CC(C)(C)c1csc(NC(=O)Cc2cn(Cc3ccccc3)c3ccc(C(N)=O)cc23)n1", "<", 4.60),
    ("CC(C)(C)c1csc(NC(=O)C(Cc2ccccc2)c2cn(Cc3ccccc3)c3ccc(Cl)cc23)n1 (stereo not given)", "<", 4.60),
    ("CC(C)(C)c1csc(NC(=O)Cc2cn(Cc3ccc(F)cc3Cl)c3ccc(Cl)cc23)n1", "=", 5.94),
    ("CC(C)(C)c1csc(NC(=O)Cc2cn(Cc3nc4ccccc4o3)c3ccc(Cl)cc23)n1", "=", 5.01),
    ("CC(C)n1cc(CC(=O)Nc2nc(C(C)(C)C)cs2)c2cc(Cl)ccc21", "=", 5.36),
    ("CCOC(C)(C)c1csc(NC(=O)Cc2cn(Cc3ccccc3Cl)c3ccc(Cl)cc23)n1", "=", 6.01),
    ("CC(C)(C)c1csc(NC(=O)Cc2cn(Cc3ccc(C#N)cc3)c3ccc(Cl)cc23)n1", "=", 5.38),
    ("CC(C)(C)c1csc(NC(=O)Cc2cn(Cc3ccccc3S(C)(=O)=O)c3ccc(Cl)cc23)n1", "=", 4.88),
    ("CC(c1ccccc1Cl)n1cc(CC(=O)Nc2nc(C(C)(C)C)cs2)c2cc(Cl)ccc21 (stereo not given)", "=", 5.81),
    ("CC(C)(C)c1csc(NC(=O)Cc2cn(C3CCc4ccccc43)c3ccc(Cl)cc23)n1 (stereo not given)", "=", 5.18),
    ("CC(C)Cn1cc(CC(=O)Nc2nc(C(C)(C)C)cs2)c2cc(Cl)ccc21", "=", 5.27),
    ("CC(C)(C)c1csc(NC(=O)Cc2cn(C3CCCC3)c3ccc(Cl)cc23)n1", "=", 5.19),
    ("CC(C)(C)c1csc(NC(=O)Cc2cn(-c3cccc(Cl)c3)c3ccc(Cl)cc23)n1", "=", 5.38),
    ("CCC(C)(C)c1csc(NC(=O)Cc2csc3ccc(Cl)cc23)n1", "=", 5.56),
]

====

Assay: Inhibition of TNF-alpha-FL-Gluc secretion in doxycyclin-induced human Flp-In-T-REx-293 cells measured by Gaussia luciferase reporter gene method
Format: functional, cell-based
Listed here: items and their measured IC50.

# Item Smiles, IC50
records = [
    ("COC(C)(C)c1csc(NC(=O)Cc2cn(Cc3ccccc3Cl)c3ccc(Cl)cc23)n1", "13.6 µM"),
    ("CC(C)OC(C)(C)c1csc(NC(=O)Cc2cn(Cc3ccccc3Cl)c3ccc(Cl)cc23)n1", "14.8 µM"),
    ("CCCc1csc(NC(=O)c2cc3c(s2)CCCC3)n1", "> 80 µM"),
    ("CC(C)(C)c1csc(NC(=O)Cc2cn(Cc3ncccn3)c3ccc(Cl)cc23)n1", "> 25 µM"),
    ("CC(C)(C)c1csc(NC(=O)Cc2cn(C3CCCCC3)c3ccc(Cl)cc23)n1", "> 25 µM"),
    ("CC(C)(C)c1csc(NC(=O)Cc2cn(Cc3nc4ccccc4o3)c3ccc(Cl)cc23)n1", "> 25 µM"),
    ("CC1(C)CCc2sc(NC(=O)c3cc4c(s3)CCCC4)nc21", "> 80 µM"),
    ("CC(C)(C)c1csc(NC(=O)c2ccc(Br)s2)n1", "> 80 µM"),
    ("Cc1cnccc1Cn1cc(CC(=O)Nc2nc(C(C)(C)C)cs2)c2cc(Cl)ccc21", "19.1 µM"),
]

====

Assay: Inhibition of PD1ss-Gluc secretion in doxycyclin-induced human Flp-In-T-REx-293 cells measured by Gaussia luciferase reporter gene method
Assay type: functional, cell-based
pIC50: −log10 of the molar value.
Param threshold (5) applies to pIC50; output YES when value >= threshold, NO when value < threshold.

# Item Smiles, Classification
records = [
    ("CN[C@@H](Cc1cn(Cc2ccc(F)cc2)c2ccccc12)C(=O)Nc1nc(C(C)(C)C)cs1", "NO"),
    ("CC(C)(C)c1csc(NC(=O)c2cc3cc(C#N)ccc3s2)n1", "NO"),
    ("CC(C)(C)c1csc(NC(=O)Cc2cn(Cc3c(F)cccc3Cl)c3ccc(Cl)cc23)n1", "YES"),
    ("CC(C)(C)c1csc(NC(=O)Cc2cn(Cc3cocn3)c3ccc(Cl)cc23)n1", "NO"),
    ("Cc1c(CC(=O)Nc2nc(C(C)(C)C)cs2)c2ccccc2n1Cc1ccccc1Cl", "YES"),
    ("CC(C)(C)c1csc(NC(=O)Cc2cn(Cc3ccccc3C(N)=O)c3ccc(Cl)cc23)n1", "NO"),
    ("Cc1cc(C(=O)Nc2nc(C(C)(C)C)cs2)cn1Cc1ccccc1", "YES"),
]
